Molecular target: Human recombinant liver glycogen phosphorylase a (hrl GPa) (Homo sapiens, UniProt P06737)
Sequence (P06737 1-847): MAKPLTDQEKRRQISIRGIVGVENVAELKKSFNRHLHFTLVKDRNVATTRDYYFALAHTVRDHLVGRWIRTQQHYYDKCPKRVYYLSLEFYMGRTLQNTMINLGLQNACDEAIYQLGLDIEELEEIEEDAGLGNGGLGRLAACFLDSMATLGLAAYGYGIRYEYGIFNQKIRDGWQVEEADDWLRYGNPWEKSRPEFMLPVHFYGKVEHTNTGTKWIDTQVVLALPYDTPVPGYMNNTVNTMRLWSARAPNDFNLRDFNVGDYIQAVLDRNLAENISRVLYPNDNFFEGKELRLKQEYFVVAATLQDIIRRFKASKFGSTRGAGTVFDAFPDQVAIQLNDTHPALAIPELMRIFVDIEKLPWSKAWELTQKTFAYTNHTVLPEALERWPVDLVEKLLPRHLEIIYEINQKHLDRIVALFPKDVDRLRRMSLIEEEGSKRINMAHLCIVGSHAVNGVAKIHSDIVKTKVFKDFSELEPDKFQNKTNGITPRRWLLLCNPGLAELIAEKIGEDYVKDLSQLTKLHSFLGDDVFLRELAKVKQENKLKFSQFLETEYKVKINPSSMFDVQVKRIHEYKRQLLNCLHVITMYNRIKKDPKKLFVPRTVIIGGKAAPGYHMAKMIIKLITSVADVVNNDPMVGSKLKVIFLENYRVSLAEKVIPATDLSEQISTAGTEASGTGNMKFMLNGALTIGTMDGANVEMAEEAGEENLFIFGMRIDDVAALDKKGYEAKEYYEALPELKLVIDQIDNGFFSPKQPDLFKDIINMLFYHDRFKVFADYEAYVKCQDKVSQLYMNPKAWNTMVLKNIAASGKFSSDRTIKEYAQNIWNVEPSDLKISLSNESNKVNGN
Test: glycogen phosphorylase inhibition, multienzyme coupled assay of glucose-1-phosphate production from glycogen
Settings: hrl GPa 20 nM, 6 hours at 30° C., 1% DMSO

compound | scale.unit | IC50
O=C(N[C@@H]1Cc2ccccc2[C@H]1CO)c1cc2cc(Cl)ccc2[nH]1 [Example 2] | nM | 868
